Please provide measured pIC50 for the entries that follow.
system: MDA-MB-231; assay: Antiproliferative activity against human MDA-MB-231 cells assessed as reduction in cell viability after 72 hrs by MTT assay; format: functional, cell-based; conditions: MDA-MB-231, 72 h
Give bare numbers, as −log10 of the molar value.

>>> reported_measurement("COc1cc(OC)cc(-n2ccnc2-c2cc(OC)c(OC)c(OC)c2)c1")
4.34
>>> reported_measurement("COc1ccc(-n2ccnc2-c2cc(OC)c(OC)c(OC)c2)cc1N")
5.98
>>> reported_measurement("COc1cccc(-n2ccnc2-c2cc(OC)c(OC)c(OC)c2)c1")
4.74

Batch of 8 compounds: report pIC50 for each.
1. COc1cc(-c2nccn2-c2ccc3[nH]ccc3c2)cc(OC)c1OC
2. COc1cc(-c2nccn2-c2ccc(Br)cc2)cc(OC)c1OC
3. CCCCn1ccnc1-c1cc(OC)c(OC)c(OC)c1
4. COc1ccc(C(=O)Nc2cc(OC)c(OC)c(OC)c2)cc1[N+](=O)[O-]
5. COc1ccc(NC(=O)c2cc(OC)c(OC)c(OC)c2)cc1N
6. CCCCCn1ccnc1-c1cc(OC)c(OC)c(OC)c1
7. COc1cc(-c2nccn2-c2cccc(C)c2)cc(OC)c1OC
8. COc1ccc(NC(=O)c2cc(OC)c(OC)c(OC)c2)cc1[N+](=O)[O-]

Marked response:
[5.37, 5.08, 4.15, 5.24, 4.73, 4.47, 4.93, 4.51]

For every item below, please supply its pIC50.
1. COc1ccc(-n2ccnc2-c2cc(OC)c(OC)c(OC)c2)cc1O
2. COc1ccc(-n2ccnc2-c2cc(OC)c(OC)c(OC)c2)cc1[N+](=O)[O-]

Marked response:
1: 5.72; 2: 5.12

###

system: HCT-15; experiment: Antiproliferative activity against human HCT15 cells assessed as reduction in cell viability after 72 hrs by MTT assay; type: functional, cell-based; conditions: HCT-15, 72 h
pIC50: −log10 of the molar value.
Record form. Attribute: pIC50. Fill in for each entry.

>>> reported_measurement("CCCn1ccnc1-c1cc(OC)c(OC)c(OC)c1")
"< 4.00"
>>> reported_measurement("COc1cc(OC)cc(-n2ccnc2-c2cc(OC)c(OC)c(OC)c2)c1")
"< 4.00"
>>> reported_measurement("COc1ccc(-n2ccnc2-c2cc(OC)c(OC)c(OC)c2)cc1O")
6.70

Give measured pIC50 for every item shown.
1. COc1cc(-c2nccn2Cc2ccccc2)cc(OC)c1OC
2. COc1ccc(OC(=O)c2cc(OC)c(OC)c(OC)c2)cc1[N+](=O)[O-]
3. CCCCCn1ccnc1-c1cc(OC)c(OC)c(OC)c1

Marked response:
1. < 4.00
2. < 4.00
3. < 4.00
